conditions: in sec-butanol, 293.15 K
measured.metric: solubility (mole fraction)
Would you mind answering with just the numeric figure?

Query CCOc1ccccc1C(N)=O yields solubility (mole fraction) of 0.00924

====

conditions: in isopropanol, 313.15 K
measured.metric: solubility (mole fraction)
Would you mind answering with just the numeric figure?

Query CCOc1ccccc1C(N)=O yields solubility (mole fraction) of 0.0205

====

details: in DMF, 328.15 K
measured.metric: solubility (mole fraction)

Query CCOc1ccccc1C(N)=O yields solubility (mole fraction) of 0.151

====

details: in DMF, 318.15 K
measured.metric: solubility (mole fraction)
Would you mind answering with just the numeric figure?

Query CCOc1ccccc1C(N)=O yields solubility (mole fraction) of 0.117

====

conditions: in 2-butanone, 308.15 K
measured.metric: solubility (mole fraction)
Would you mind answering with just the numeric figure?

Query CCOc1ccccc1C(N)=O yields solubility (mole fraction) of 0.0268

====

settings: in n-pentanol, 298.15 K
measured.metric: solubility (mole fraction)
Would you mind answering with just the numeric figure?

Query CCOc1ccccc1C(N)=O yields solubility (mole fraction) of 0.0131

====

conditions: in isopropanol, 328.15 K
measured.metric: solubility (mole fraction)
Would you mind answering with just the numeric figure?

Query CCOc1ccccc1C(N)=O yields solubility (mole fraction) of 0.0423

====

details: in n-propyl acetate, 288.15 K
measured.metric: solubility (mole fraction)
Would you mind answering with just the numeric figure?

Query CCOc1ccccc1C(N)=O yields solubility (mole fraction) of 0.00566

====

conditions: in n-butyl acetate, 298.15 K
measured.metric: solubility (mole fraction)
Would you mind answering with just the numeric figure?

Query CCOc1ccccc1C(N)=O yields solubility (mole fraction) of 0.00705

====

conditions: in ethyl formate, 298.15 K
measured.metric: solubility (mole fraction)
Would you mind answering with just the numeric figure?

Query CCOc1ccccc1C(N)=O yields solubility (mole fraction) of 0.0122

====

settings: in 1,4-dioxane, 323.15 K
measured.metric: solubility (mole fraction)
Would you mind answering with just the numeric figure?

Query CCOc1ccccc1C(N)=O yields solubility (mole fraction) of 0.0527

====

conditions: in DMF, 303.15 K
measured.metric: solubility (mole fraction)
Would you mind answering with just the numeric figure?

Query CCOc1ccccc1C(N)=O yields solubility (mole fraction) of 0.0754

====

details: in n-propyl acetate, 328.15 K
measured.metric: solubility (mole fraction)

Query CCOc1ccccc1C(N)=O yields solubility (mole fraction) of 0.0271

====

conditions: in sec-butanol, 303.15 K
measured.metric: solubility (mole fraction)
Would you mind answering with just the numeric figure?

Query CCOc1ccccc1C(N)=O yields solubility (mole fraction) of 0.0153

====

details: in n-pentanol, 308.15 K
measured.metric: solubility (mole fraction)
Would you mind answering with just the numeric figure?

Query CCOc1ccccc1C(N)=O yields solubility (mole fraction) of 0.0207

====

settings: in n-butanol, 303.15 K
measured.metric: solubility (mole fraction)
Would you mind answering with just the numeric figure?

Query CCOc1ccccc1C(N)=O yields solubility (mole fraction) of 0.0158

====

details: in ethyl formate, 308.15 K
measured.metric: solubility (mole fraction)
Would you mind answering with just the numeric figure?

Query CCOc1ccccc1C(N)=O yields solubility (mole fraction) of 0.0188

====

details: in ethyl formate, 318.15 K
measured.metric: solubility (mole fraction)

Query CCOc1ccccc1C(N)=O yields solubility (mole fraction) of 0.0293

====

conditions: in isopropanol, 308.15 K
measured.metric: solubility (mole fraction)
Would you mind answering with just the numeric figure?

Query CCOc1ccccc1C(N)=O yields solubility (mole fraction) of 0.0157

Values were extracted from BigSolDB 2.1.
